Read-out: Thrombomodulin, THBD (gene 7056)
Measurement protocol: BSK_CASM3C_Thrombomodulin: BioMAP Diversity Plus: CASM3C Assay for Thrombomodulin Biomarker Activity (AID 2283051);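 note: thrombomodulin protein level measured by ELISA 24 h after dosing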
Condition label: primary human coronary artery smooth muscle cells; actives raise or lower the signal
Activity calls are given as the source filed them. Rule for the calls: active = hit-call score of the fitted dose curve at least 0.9, where 1 is the maximum; inactive = score below 0.9.
Field 'call' accepts active, inactive

As a guide, the following entries are already answered.
C=C(C)[C@H]1CC=C(C)C(=O)C1    inactive
O=CN1CCOCC1    inactive
c1ccc(CCc2ccccc2)cc1    inactive
CC(C)(C)CC(C)(C)c1ccc(OCCOCC[N+](C)(C)Cc2ccccc2)cc1    active
CC(C)(N=C=O)c1cccc(C(C)(C)N=C=O)c1    inactive

Switching to the query record.
In: Dear colleague, could you share the recorded outcome for C1=CC2C3C=CC(C3)C2C1 (configuration not stated) when you have a moment?
Out: inactive

These data points were gathered from PubChem BioAssay (EPA / NIEHS).
